Value source: patent US20230059009A1

Tested on: H23
Experiment: Cell viability, MTT assay, H23
Type: cell-based
Details: Homo sapiens, NCI-H23, H23 (Lung)
Please respond with reported IC50 for every item in the list.
The reply should contain only the number, in µM.

Item: CC(=O)Nc1cccc(-c2ccc3ncc(C)n3n2)c1 [JGJ007] | System: H23 | IC50: 95

Item: CC(=O)Nc1cccc(-c2ccc3ncc(-c4ccccc4)n3n2)c1 [JGJ023] | System: H23 | IC50: 94

Item: Cc1cnc2ccc(-c3cccc(F)c3)nn12 [JGJ015] | System: H23 | IC50: 62

* * *

Tested on: A549
Assay: Cell viability, MTT assay, A549
Assay type: cell-based
Details: Homo sapiens, A549 (Lung)
Measured Property: pIC50
Quick note: pIC50 values are minus log10 of concentrations in mol/L.

Item: C=CC(=O)Nc1cc(Nc2nccc(-c3cn(C)c4ccccc34)n2)c(OC)cc1N(C)CCN(C)C [Osimertinib, reference compound] | System: A549 | pIC50: 4.96

Item: Cc1cnc2ccc(-c3cccc(F)c3)nn12 | System: A549 | pIC50: 4.03

Item: CC(=O)Nc1cccc(-c2ccc3ncc(C)n3n2)c1 | System: A549 | pIC50: 4.01

Item: CC(=O)Nc1cccc(-c2ccc3ncc(-c4ccccc4)n3n2)c1 | System: A549 | pIC50: 4.70

* * *

Tested on: SW480
Assay: Cell viability, CTG, SW480
Assay type: cell-based
Conditions: SW480 (Colon)
Measured Property: pIC50
Quick note: pIC50 values are minus log10 of concentrations in mol/L.

GET /value?item= CC(=O)N(C)c1cccc(-c2ccc3nnc(C)n3n2)c1 &field=pIC50 returns 3.77

* * *

Assay: Microsomal stability, Human
Type: in vitro ADME
Conditions: microsomes, Conc. 30 uM, read-out: Microsomal stability T½
Measured Property: half-life at 30 uM
State the value, then name its unit.

GET /value?item= Cc1cnc2ccc(-c3cccc(F)c3)nn12 [JGJ015] &field=half-life at 30 uM returns 7.76 min

GET /value?item= CC(=O)Nc1cccc(-c2ccc3ncc(C)n3n2)c1 [JGJ007] &field=half-life at 30 uM returns 65.6 min
